molecular target: FAPα enzyme derived from membrane extracts of the 293-I/2 transfected cells (Homo sapiens, UniProt Q12884); construct: made in house; host or cells: human embryonic kidney 293 cells, clone 293-I/2, membrane extract; assay: FAPα-catalyzed cleavage of 4-methoxy-β-napthylamide (MNA)-peptide conjugates, enzyme kinetics; assay type: biochemical; conditions: release of free MNA, fluorimeter 355 nm/405 nm
Sequence (Q12884 whole entry): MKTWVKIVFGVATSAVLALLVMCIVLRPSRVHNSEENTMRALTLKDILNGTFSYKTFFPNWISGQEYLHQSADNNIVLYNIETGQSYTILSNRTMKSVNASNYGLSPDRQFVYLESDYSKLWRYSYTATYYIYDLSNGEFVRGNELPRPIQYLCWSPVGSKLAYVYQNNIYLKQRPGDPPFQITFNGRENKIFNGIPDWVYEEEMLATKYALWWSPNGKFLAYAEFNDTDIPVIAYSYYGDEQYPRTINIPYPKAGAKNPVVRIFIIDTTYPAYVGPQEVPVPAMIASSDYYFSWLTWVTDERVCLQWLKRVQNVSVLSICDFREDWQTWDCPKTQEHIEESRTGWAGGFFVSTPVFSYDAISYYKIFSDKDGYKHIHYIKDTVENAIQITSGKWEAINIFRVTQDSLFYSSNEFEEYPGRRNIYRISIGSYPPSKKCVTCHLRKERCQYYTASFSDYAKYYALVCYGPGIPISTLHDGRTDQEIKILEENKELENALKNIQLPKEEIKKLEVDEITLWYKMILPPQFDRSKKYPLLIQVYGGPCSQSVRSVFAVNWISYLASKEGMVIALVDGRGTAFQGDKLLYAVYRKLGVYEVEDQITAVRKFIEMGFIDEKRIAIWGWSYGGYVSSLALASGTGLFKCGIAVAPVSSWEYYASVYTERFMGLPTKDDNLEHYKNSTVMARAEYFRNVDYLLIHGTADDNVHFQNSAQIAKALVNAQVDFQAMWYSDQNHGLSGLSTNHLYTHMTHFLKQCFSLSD
measured-metric: Kcat (s⁻¹)

INSERT INTO results (molecule, units_label, numeric_result) VALUES
  ('COc1cc(NC(=O)[C@@H]2CCCN2C(=O)[C@@H](N)C(C)C)cc2ccccc12', 's⁻¹', 27.7),
  ('COc1cc(NC(=O)[C@@H]2CCCN2C(=O)[C@@H](N)CC[S+](C)[O-])cc2ccccc12 (some centres unmarked)', 's⁻¹', 26.9),
  ('COc1cc(NC(=O)[C@@H]2CCCN2C(=O)[C@@H]2CCCN2)cc2ccccc12 [Pro-Pro-MNA, Pro-Pro-4-methoxy-β-naphthylamide]', 's⁻¹', 49.5);

(a) COc1cc(NC(=O)[C@@H]2CCCN2C(=O)[C@@H](N)CCCNC(=N)N)cc2ccccc12
(b) COc1cc(NC(=O)[C@@H]2CCCN2C(=O)[C@@H](N)CCCCO)cc2ccccc12
Hello, I am sorting some records. Could you say if a or b has the smaller Kcat value? State your choice using its label. b
(b: 27.4 s⁻¹, a: 50.6 s⁻¹)

====

biological target: FAPα enzyme derived from membrane extracts of the 293-I/2 transfected cells (Homo sapiens); construct: made in house; host or cells: human embryonic kidney 293 cells, clone 293-I/2, membrane extract; experiment: FAPα-catalyzed cleavage of 4-methoxy-β-napthylamide (MNA)-peptide conjugates, enzyme kinetics; format: biochemical; details: release of free MNA, fluorimeter 355 nm/405 nm
measured-metric: Km (µM)

INSERT INTO results (molecule, units_label, numeric_result) VALUES
  ('COc1cc(NC(=O)[C@@H]2CCCN2C(=O)[C@@H]2C[C@@H](O)CN2)cc2ccccc12 [trans-Hyp-Pro-MNA]', 'µM', 254),
  ('COc1cc(NC(=O)[C@@H]2CCCN2C(=O)[C@@H](N)CC[S+](C)[O-])cc2ccccc12 (some centres unmarked)', 'µM', 378),
  ('COc1cc(NC(=O)[C@@H]2CCCN2C(=O)[C@@H](N)C2CCCCC2)cc2ccccc12', 'µM', 75),
  ('COc1cc(NC(=O)[C@@H]2CCCN2C(=O)[C@@H](N)CCC(N)=O)cc2ccccc12', 'µM', 273),
  ('COc1cc(NC(=O)[C@@H]2CCCN2C(=O)[C@@H](N)CCSC)cc2ccccc12', 'µM', 127),
  ('COc1cc(NC(=O)[C@@H]2CCCN2C(=O)[C@@H](N)CCCNC(=N)N)cc2ccccc12', 'µM', 278);

(1) COc1cc(NC(=O)[C@@H]2CCCN2C(=O)[C@@H](N)C(C)C)cc2ccccc12
(2) COc1cc(NC(=O)[C@@H]2CCCN2C(=O)[C@@H]2CCCN2)cc2ccccc12 [Pro-Pro-MNA, Pro-Pro-4-methoxy-β-naphthylamide]
From the recorded data, which exceeds the other in Km: 1 or 2 ? State your choice using its label. 2
(2: 154 µM, 1: 95 µM)
